B1: library; a variant is named by its letters at N, in order (parent)
chain: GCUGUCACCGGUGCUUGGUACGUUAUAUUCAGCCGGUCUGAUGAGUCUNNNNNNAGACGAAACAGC

Variants of: B1
Test: normalized RNA/DNA level with ligand (relative to sTRSVctl = 100) (log10 (% of sTRSVctl)); HEK293T overexpressing SLC46A1; ligand concentration (+) RNA-Seq: 6 mM; higher = less ribozyme self-cleavage, higher mRNA level
Details: with (6R,S)-folinic acid; ligand present: yes
List of normalized RNA/DNA level with ligand (log10) values.
property_measured: normalized RNA/DNA level with ligand (log10)

* GCUGUCACCGGUGCUUGGUACGUUAUAUUCAGCCGGUCUGAUGAGUCUAAACGUAGACGAAACAGC [AAACGU] | 2
* GCUGUCACCGGUGCUUGGUACGUUAUAUUCAGCCGGUCUGAUGAGUCUGCAGGUAGACGAAACAGC [GCAGGU] | 1.99
* GCUGUCACCGGUGCUUGGUACGUUAUAUUCAGCCGGUCUGAUGAGUCUGCCCCAAGACGAAACAGC [GCCCCA] | 2.01
* GCUGUCACCGGUGCUUGGUACGUUAUAUUCAGCCGGUCUGAUGAGUCUCACCGGAGACGAAACAGC [CACCGG] | 2.01
* GCUGUCACCGGUGCUUGGUACGUUAUAUUCAGCCGGUCUGAUGAGUCUGAUCCCAGACGAAACAGC [GAUCCC] | 2.05
* GCUGUCACCGGUGCUUGGUACGUUAUAUUCAGCCGGUCUGAUGAGUCUCACGCCAGACGAAACAGC [CACGCC] | 1.99
* GCUGUCACCGGUGCUUGGUACGUUAUAUUCAGCCGGUCUGAUGAGUCUGAAUAAAGACGAAACAGC [GAAUAA] | 1.99
* GCUGUCACCGGUGCUUGGUACGUUAUAUUCAGCCGGUCUGAUGAGUCUCGCGCCAGACGAAACAGC [CGCGCC] | 2.05
* GCUGUCACCGGUGCUUGGUACGUUAUAUUCAGCCGGUCUGAUGAGUCUAACUGUAGACGAAACAGC [AACUGU] | 2.01
* GCUGUCACCGGUGCUUGGUACGUUAUAUUCAGCCGGUCUGAUGAGUCUGGCUCCAGACGAAACAGC [GGCUCC] | 2.02
* GCUGUCACCGGUGCUUGGUACGUUAUAUUCAGCCGGUCUGAUGAGUCUCCACGAAGACGAAACAGC [CCACGA] | 2.02
* GCUGUCACCGGUGCUUGGUACGUUAUAUUCAGCCGGUCUGAUGAGUCUACGCCAAGACGAAACAGC [ACGCCA] | 2.02
* GCUGUCACCGGUGCUUGGUACGUUAUAUUCAGCCGGUCUGAUGAGUCUAUCGGUAGACGAAACAGC [AUCGGU] | 1.96
* GCUGUCACCGGUGCUUGGUACGUUAUAUUCAGCCGGUCUGAUGAGUCUCAGAGCAGACGAAACAGC [CAGAGC] | 2.01
* GCUGUCACCGGUGCUUGGUACGUUAUAUUCAGCCGGUCUGAUGAGUCUUCCGCAAGACGAAACAGC [UCCGCA] | 2.01
* GCUGUCACCGGUGCUUGGUACGUUAUAUUCAGCCGGUCUGAUGAGUCUACGCGGAGACGAAACAGC [ACGCGG] | 2.03
* GCUGUCACCGGUGCUUGGUACGUUAUAUUCAGCCGGUCUGAUGAGUCUGAGGAAAGACGAAACAGC [GAGGAA] | 2.01
* GCUGUCACCGGUGCUUGGUACGUUAUAUUCAGCCGGUCUGAUGAGUCUCUGCACAGACGAAACAGC [CUGCAC] | 2.02
* GCUGUCACCGGUGCUUGGUACGUUAUAUUCAGCCGGUCUGAUGAGUCUAAGACGAGACGAAACAGC [AAGACG] | 2
